measurementTarget: Human HER3, endogenous, on human cancer cell lines (SK-Br-3, MCF7, BT-474) (human, UniProt P21860 20-1342)
Sequence (P21860 20-1342): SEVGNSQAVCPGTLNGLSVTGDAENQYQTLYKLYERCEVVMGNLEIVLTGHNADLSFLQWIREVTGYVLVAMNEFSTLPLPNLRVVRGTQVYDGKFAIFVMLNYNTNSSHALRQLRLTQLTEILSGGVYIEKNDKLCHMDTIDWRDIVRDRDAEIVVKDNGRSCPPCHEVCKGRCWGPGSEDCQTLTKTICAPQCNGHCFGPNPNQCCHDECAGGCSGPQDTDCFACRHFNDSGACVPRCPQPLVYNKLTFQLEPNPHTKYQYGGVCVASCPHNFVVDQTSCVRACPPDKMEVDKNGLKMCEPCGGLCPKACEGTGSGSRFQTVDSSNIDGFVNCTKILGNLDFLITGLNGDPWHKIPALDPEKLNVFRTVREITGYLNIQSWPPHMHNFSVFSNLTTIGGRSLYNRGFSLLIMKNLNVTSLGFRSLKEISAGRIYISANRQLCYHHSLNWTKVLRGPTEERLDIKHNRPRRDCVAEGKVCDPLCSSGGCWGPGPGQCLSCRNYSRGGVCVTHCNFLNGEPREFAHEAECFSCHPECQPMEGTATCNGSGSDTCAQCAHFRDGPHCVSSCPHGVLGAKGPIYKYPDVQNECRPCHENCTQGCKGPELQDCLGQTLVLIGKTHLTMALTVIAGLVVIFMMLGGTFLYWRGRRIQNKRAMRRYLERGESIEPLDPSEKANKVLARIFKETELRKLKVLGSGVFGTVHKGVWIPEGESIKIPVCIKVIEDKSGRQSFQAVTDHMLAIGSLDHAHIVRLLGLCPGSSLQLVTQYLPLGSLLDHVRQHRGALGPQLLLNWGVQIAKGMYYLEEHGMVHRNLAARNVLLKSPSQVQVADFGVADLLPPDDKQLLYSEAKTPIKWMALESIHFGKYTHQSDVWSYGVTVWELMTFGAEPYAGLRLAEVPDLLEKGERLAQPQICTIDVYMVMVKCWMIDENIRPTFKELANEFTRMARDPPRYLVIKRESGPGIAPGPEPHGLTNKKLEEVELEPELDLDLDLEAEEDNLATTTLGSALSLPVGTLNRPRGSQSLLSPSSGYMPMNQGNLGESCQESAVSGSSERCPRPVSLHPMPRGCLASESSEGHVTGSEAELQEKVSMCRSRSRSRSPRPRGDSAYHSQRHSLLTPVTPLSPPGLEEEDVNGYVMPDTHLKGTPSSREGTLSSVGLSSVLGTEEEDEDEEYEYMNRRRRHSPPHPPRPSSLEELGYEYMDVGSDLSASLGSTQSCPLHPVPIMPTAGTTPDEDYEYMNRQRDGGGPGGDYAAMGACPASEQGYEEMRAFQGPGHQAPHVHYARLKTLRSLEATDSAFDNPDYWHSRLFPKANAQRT
runDescription: cell-based or functional assay
recordedEndpoint: SK-Br-3 pHER3 % inhibition (%)
Express your answer in %, writing the number without its unit.

Query: Please look up its SK-Br-3 pHER3 % inhibition: MOR13758 (antibody, human IgG1, kappa, V domains shown, tested as IgG) VH: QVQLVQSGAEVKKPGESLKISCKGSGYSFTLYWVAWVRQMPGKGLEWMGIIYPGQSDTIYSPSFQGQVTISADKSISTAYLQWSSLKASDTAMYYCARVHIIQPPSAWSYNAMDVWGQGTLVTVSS VL: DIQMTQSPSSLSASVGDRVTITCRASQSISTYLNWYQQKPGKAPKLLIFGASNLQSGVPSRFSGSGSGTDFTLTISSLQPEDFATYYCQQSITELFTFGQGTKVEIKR
Reply: 77

Query: Please look up its SK-Br-3 pHER3 % inhibition: MOR13871 (antibody, human IgG1, kappa, V domains shown, tested as IgG) VH: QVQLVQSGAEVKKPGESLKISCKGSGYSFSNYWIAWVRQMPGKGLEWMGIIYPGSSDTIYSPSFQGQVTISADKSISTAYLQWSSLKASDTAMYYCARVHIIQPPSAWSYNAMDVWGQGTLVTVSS VL: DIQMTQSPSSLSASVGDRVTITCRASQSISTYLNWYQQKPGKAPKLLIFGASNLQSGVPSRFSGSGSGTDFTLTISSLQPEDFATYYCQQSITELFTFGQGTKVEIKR
Reply: 83
